- protocol summary: Plasma protein binding, rapid equilibrium dialysis
- Format: in vitro ADME
- cond: 37 °C, read-out: drug bound to plasma proteins

molecule: O=C(NCc1ccc(-c2ccccc2)cc1)Nc1ccc(NCC2CCNCC2)cc1C(F)(F)F [Compound 17]
fraction unbound at 4 h, 1 μM: 0.01

---

- measured on: ROR1 kinase domain (Homo sapiens, UniProt Q01973)
- Construct: recombinant human ROR1 protein (aa 453‐783, His&GST Tag); His; GST; purchased Elabscience
- Sequence (Q01973 453-783): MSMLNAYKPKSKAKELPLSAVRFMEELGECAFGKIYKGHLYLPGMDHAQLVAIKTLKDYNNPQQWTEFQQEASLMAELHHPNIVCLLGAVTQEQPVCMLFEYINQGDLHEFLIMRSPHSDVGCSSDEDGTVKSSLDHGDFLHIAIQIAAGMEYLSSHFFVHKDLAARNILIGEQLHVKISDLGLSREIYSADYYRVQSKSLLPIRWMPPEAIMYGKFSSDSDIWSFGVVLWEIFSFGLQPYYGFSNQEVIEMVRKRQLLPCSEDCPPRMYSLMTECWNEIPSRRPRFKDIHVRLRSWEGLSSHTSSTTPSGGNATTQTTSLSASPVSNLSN
- protocol summary: SPR assay on ROR1 kinase domain
- Assay type: binding
- Protocol: We performed molecular docking experiments to explore the binding mode of novel derivatives using the crystallographic structure of the protein co‐complexed with ponatinib, a known inhibitor of ROR1 (PDB code: 6TU9).^[ [30] ^] […] For the experiments, surfaces of ROR1, along with an unmodified reference surface, were prepared for simultaneous analyses. […] Changes in mass, reflective of the binding response, were recorded as resonance units (RU). […]
pKd: −log10 of the molar value.
measure: pKd

compound: Cc1ccc(C(=O)Nc2ccc(CN3CCN(C)CC3)c(C(F)(F)F)c2)cc1C#Cc1cnc2cccnn12 [Ponatinib, reference compound]
observed: 5.54

Values were extracted from paper PMC12276035.
